All figures here come from PubChem BioAssay AID2060626.

Tested on: 168753-222-R-J1-PDC complex spheroid viability
assay_method_text: Anticancer human tumor 168753-222-R-J1-PDC patient-derived bladder carcinoma cell line growth inhibition [CLK]
condition_details: second compound 1 µM; first compound 1 µM; active compounds read low
Exercise: state measured viability, T/C for each of the compounds provided.

Worked cases, viability, T/C given:
- compound: "CC(=O)O[C@H]1C(=O)[C@@]2(C)[C@H]([C@H](OC(=O)c3ccccc3)[C@]3(O)C[C@H](OC(=O)[C@H](O)[C@@H](NC(=O)c4ccccc4)c4ccccc4)C(C)=C1C3(C)C)[C@]1(OC(C)=O)CO[C@@H]1C[C@@H]2O + CN1CCN(c2cc(C(=O)Nc3cc4cc(-c5cnn(C)c5)ccc4cn3)ccn2)CC1"
  viability, T/C: "0.11%"
- compound: "O=C(c1cc(Cc2n[nH]c(=O)c3ccccc23)ccc1F)N1CCN(C(=O)C2CC2)CC1 + CN1CCN(c2cc(C(=O)Nc3cc4cc(-c5cnn(C)c5)ccc4cn3)ccn2)CC1"
  viability, T/C: "0.63%"
- compound: "CC(CO)NC(=O)c1cc(-c2ccc(Cl)cc2)nn(-c2cnn(C)c2)c1=O (configuration not stated) + CN1CCN(c2cc(C(=O)Nc3cc4cc(-c5cnn(C)c5)ccc4cn3)ccn2)CC1"
  viability, T/C: "0.55%"

Items follow; give viability, T/C for each.
1. Nc1ccn(C2OC(CO)C(O)C2(F)F)c(=O)n1 (configuration not stated) + CNC(=O)c1ccc(Nc2nc(OC3CCCC3)c3c(-c4ccc5nc(C)oc5c4)c[nH]c3n2)c(OC)c1
2. CC(=O)O[C@H]1C(=O)[C@@]2(C)[C@H]([C@H](OC(=O)c3ccccc3)[C@]3(O)C[C@H](OC(=O)[C@H](O)[C@@H](NC(=O)c4ccccc4)c4ccccc4)C(C)=C1C3(C)C)[C@]1(OC(C)=O)CO[C@@H]1C[C@@H]2O + CNC(=O)c1ccc(Nc2nc(OC3CCCC3)c3c(-c4ccc5nc(C)oc5c4)c[nH]c3n2)c(OC)c1
3. Nc1ccccc1NC(=O)c1ccc(CNC(=O)OCc2cccnc2)cc1 + CNC(=O)c1ccc(Nc2nc(OC3CCCC3)c3c(-c4ccc5nc(C)oc5c4)c[nH]c3n2)c(OC)c1
4. COc1c(OCCCN2CCOCC2)ccc2c3n(c(=NC(=O)c4cnc(N)nc4)nc12)CCN3 + CN1CCN(c2cc(C(=O)Nc3cc4cc(-c5cnn(C)c5)ccc4cn3)ccn2)CC1
5. C#Cc1c(F)ccc2cc(O)cc(-c3ncc4c(N5CC6CCC(C5)N6)nc(OCC56CCCN5CC(F)C6)nc4c3F)c12 (configuration not stated) + CNC(=O)c1ccc(Nc2nc(OC3CCCC3)c3c(-c4ccc5nc(C)oc5c4)c[nH]c3n2)c(OC)c1
6. Nc1ccccc1NC(=O)c1ccc(CNC(=O)OCc2cccnc2)cc1 + CN1CCN(c2cc(C(=O)Nc3cc4cc(-c5cnn(C)c5)ccc4cn3)ccn2)CC1

1: 16.4%; 2: 29.4%; 3: 41.4%; 4: 0.09%; 5: 22.7%; 6: 0.05%

Provide viability, T/C for all items below, preserving their order.
1. CCCS(=O)(=O)Nc1ccc(F)c(C(=O)c2c[nH]c3ncc(-c4ccc(Cl)cc4)cc23)c1F + CN1CCN(c2cc(C(=O)Nc3cc4cc(-c5cnn(C)c5)ccc4cn3)ccn2)CC1
2. CCc1c2c(nc3ccc(O)cc13)-c1cc3c(c(=O)n1C2)COC(=O)[C@]3(O)CC + CN1CCN(c2cc(C(=O)Nc3cc4cc(-c5cnn(C)c5)ccc4cn3)ccn2)CC1
3. CC1(C)CCC(CN2CCN(c3ccc(C(=O)NS(=O)(=O)c4ccc(NCC5CCOCC5)c([N+](=O)[O-])c4)c(Oc4cnc5[nH]ccc5c4)c3)CC2)=C(c2ccc(Cl)cc2)C1 + CNC(=O)c1ccc(Nc2nc(OC3CCCC3)c3c(-c4ccc5nc(C)oc5c4)c[nH]c3n2)c(OC)c1

1: 0.33%; 2: 1.02%; 3: 25.9%

---

System: 168753-222-R-J1-PDC complex spheroid viability
assay_method_text: Anticancer human tumor 168753-222-R-J1-PDC cell line growth inhibition [CLK]; active = viability on the fitted dose curve at most 10% of control; inactive = the rest;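 also: luminescence signal used as surrogate for viable cell amount; viability measured after seven days of drug exposure; 100% = DMSO vehicle control wells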
condition_details: second compound 1 µM; first compound 1 µM
Text: A high-throughput screen of multi-cell type tumor spheroids was designed to identify active combinations of […] and targeted small molecules. Complex spheroids include a stromal component modeled by human endothelial cells (HUVEC) and fibroblasts modeled by human mesenchymal stem cells (MSCs). […] Compounds. […] If the clinical Cmax for an agent had not been determined, the highest concentration tested was 10 microM. […]
Tick one outcome: active, inactive

- compound: "COc1cccc2c1C(=O)c1c(O)c3c(c(O)c1C2=O)CC(O)(C(=O)CO)CC3OC1CC(N)C(O)C(C)O1 (stereo not given) + CN1CCN(c2cc(C(=O)Nc3cc4cc(-c5cnn(C)c5)ccc4cn3)ccn2)CC1"
  group_label: "active"

Each compound tested received a call. Report the one for COc1c(OCCCN2CCOCC2)ccc2c3n(c(=NC(=O)c4cnc(N)nc4)nc12)CCN3 + CNC(=O)c1ccc(Nc2nc(OC3CCCC3)c3c(-c4ccc5nc(C)oc5c4)c[nH]c3n2)c(OC)c1 . active

Assay result, entry CC1COCCN1c1cc(C2(S(C)(=N)=O)CC2)nc(-c2ccnc3[nH]ccc23)n1 (stereo not given) + CN1CCN(c2cc(C(=O)Nc3cc4cc(-c5cnn(C)c5)ccc4cn3)ccn2)CC1 — outcome? active

Name the outcome recorded for COC1C=CCC(C)C(C)S(=O)(=O)NC(=O)c2ccc3c(c2)N(CC2CCC21)CC1(CCCc2cc(Cl)ccc21)CO3 (stereo not given) + CNC(=O)c1ccc(Nc2nc(OC3CCCC3)c3c(-c4ccc5nc(C)oc5c4)c[nH]c3n2)c(OC)c1 in the assay. inactive

Returns: the outcome recorded for C=C(F)C(=O)N1CCN(c2nc(OCC3CCCN3C)nc3c2CCN(c2cccc4cccc(Cl)c24)C3)CC1CC#N (stereo not given) + CNC(=O)c1ccc(Nc2nc(OC3CCCC3)c3c(-c4ccc5nc(C)oc5c4)c[nH]c3n2)c(OC)c1 in this assay. inactive

---

Test system: 168753-222-R-J1-PDC complex spheroid viability
assay_method_text: Anticancer human tumor 168753-222-R-J1-PDC cell line growth inhibition [CLK]; active means viability on the fitted dose curve at most 10% of control; inactive means the rest;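 also: luminescence signal used as surrogate for viable cell amount; viability measured after seven days of drug exposure; 100% = DMSO vehicle control wells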
condition_details: second compound 0.316 µM; first compound 1 µM
Outcome (select one): active, inactive

Would you please look over these solved cases?
- compound: "O=c1[nH]cc(F)c(=O)[nH]1 + CNC(=O)c1ccc(Nc2nc(OC3CCCC3)c3c(-c4ccc5nc(C)oc5c4)c[nH]c3n2)c(OC)c1"
  group_label: "inactive"
- compound: "COc1ccc([C@@H](O)c2cc(-c3ncnc4cc(N5CCOCC5)ccc34)c(F)cc2Cl)nn1 + CN1CCN(c2cc(C(=O)Nc3cc4cc(-c5cnn(C)c5)ccc4cn3)ccn2)CC1"
  group_label: "active"
- compound: "COc1cccc2c1C(=O)c1c(O)c3c(c(O)c1C2=O)CC(O)(C(=O)CO)CC3OC1CC(N)C(O)C(C)O1 (centres undefined) + CNC(=O)c1ccc(Nc2nc(OC3CCCC3)c3c(-c4ccc5nc(C)oc5c4)c[nH]c3n2)c(OC)c1"
  group_label: "inactive"
- compound: "COc1cccc2c1C(=O)c1c(O)c3c(c(O)c1C2=O)CC(O)(C(=O)CO)CC3OC1CC(N)C(O)C(C)O1 (centres undefined) + CN1CCN(c2cc(C(=O)Nc3cc4cc(-c5cnn(C)c5)ccc4cn3)ccn2)CC1"
  group_label: "active"
- compound: "CC1(C)CCC(CN2CCN(c3ccc(C(=O)NS(=O)(=O)c4ccc(NCC5CCOCC5)c([N+](=O)[O-])c4)c(Oc4cnc5[nH]ccc5c4)c3)CC2)=C(c2ccc(Cl)cc2)C1 + CNC(=O)c1ccc(Nc2nc(OC3CCCC3)c3c(-c4ccc5nc(C)oc5c4)c[nH]c3n2)c(OC)c1"
  group_label: "inactive"

Answer briefly: the call reported for COC1C=CCC(C)C(C)S(=O)(=O)NC(=O)c2ccc3c(c2)N(CC2CCC21)CC1(CCCc2cc(Cl)ccc21)CO3 (centres undefined) + CN1CCN(c2cc(C(=O)Nc3cc4cc(-c5cnn(C)c5)ccc4cn3)ccn2)CC1 in this assay. active

Given CCN1CCN(Cc2ccc(Nc3ncc(F)c(-c4cc(F)c5nc(C)n(C(C)C)c5c4)n3)nc2)CC1 + CN1CCN(c2cc(C(=O)Nc3cc4cc(-c5cnn(C)c5)ccc4cn3)ccn2)CC1 , state the outcome it received in this test. active

Please indicate how the test categorized O=C(c1cc(Cc2n[nH]c(=O)c3ccccc23)ccc1F)N1CCN(C(=O)C2CC2)CC1 + CN1CCN(c2cc(C(=O)Nc3cc4cc(-c5cnn(C)c5)ccc4cn3)ccn2)CC1 . active

// param item: Nc1ccn(C2OC(CO)C(O)C2(F)F)c(=O)n1 (centres undefined) + CN1CCN(c2cc(C(=O)Nc3cc4cc(-c5cnn(C)c5)ccc4cn3)ccn2)CC1 ; yields the recorded call inactive
